Study Target: binding partner of C5A (XPA23)
Test Summary: Biacore, K-off
fold difference in affinity vs original strictly under 0.1 fold means 1 (yes); at 0.1 fold or over means 0 (no).

hey, is fold difference in affinity vs original for C5A (XPA23) VH S105T (antibody, V domains shown) VH: EVQLLESGGGLVQPGGSLRLSCAASGFTFSKYFMFWVRQAPGKGLEWVSVISPSGGMTRYADSVKGRFTISRDNSKNTLYLQMNSLRAEDTAVYYCARVGYGGNTDYWGQGTLVTVSS VL: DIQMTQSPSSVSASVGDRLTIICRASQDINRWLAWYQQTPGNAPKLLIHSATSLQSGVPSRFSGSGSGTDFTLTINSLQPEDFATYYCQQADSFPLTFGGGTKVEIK lower than 0.1 fold or not? 0 (no)

Quick one: C5A (XPA23) VH P53K (antibody, V domains shown) VH: EVQLLESGGGLVQPGGSLRLSCAASGFTFSKYFMFWVRQAPGKGLEWVSVISKSGGMTRYADSVKGRFTISRDNSKNTLYLQMNSLRAEDTAVYYCARVGYGGNSDYWGQGTLVTVSS VL: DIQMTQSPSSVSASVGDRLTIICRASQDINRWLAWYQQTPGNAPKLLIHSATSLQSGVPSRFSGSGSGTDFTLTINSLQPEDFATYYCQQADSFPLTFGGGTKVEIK 1 (yes)

Quick one: C5A (XPA23) VH G102N (antibody, V domains shown) VH: EVQLLESGGGLVQPGGSLRLSCAASGFTFSKYFMFWVRQAPGKGLEWVSVISPSGGMTRYADSVKGRFTISRDNSKNTLYLQMNSLRAEDTAVYYCARVGYNGNSDYWGQGTLVTVSS VL: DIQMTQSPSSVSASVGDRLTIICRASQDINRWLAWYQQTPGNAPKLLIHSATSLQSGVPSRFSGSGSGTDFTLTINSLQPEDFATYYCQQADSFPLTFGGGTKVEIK 0 (no)

Quick one: C5A (XPA23) VH Y107S (antibody, V domains shown) VH: EVQLLESGGGLVQPGGSLRLSCAASGFTFSKYFMFWVRQAPGKGLEWVSVISPSGGMTRYADSVKGRFTISRDNSKNTLYLQMNSLRAEDTAVYYCARVGYGGNSDSWGQGTLVTVSS VL: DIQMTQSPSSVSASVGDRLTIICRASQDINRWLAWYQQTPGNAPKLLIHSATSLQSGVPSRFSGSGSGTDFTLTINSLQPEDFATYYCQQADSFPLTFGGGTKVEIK 0 (no)

These entries and their values trace back to patent US20110118447A1.
